Exercise: for every item that follows, state its recorded Kf.
Answers are plain numbers, in M⁻¹.

O=C(O)/C=C/c1ccc(O)cc1 [p-Coumaric acid (5), p-coumaric acid] :: 1988

Parameters: items (list). Returns: Kf for each item.
1. C=CCc1ccc(OC)cc1 [Estragole (2), estragole]
2. O=C(O)/C=C/c1ccc(O)c(O)c1 [Caffeic acid (6), caffeic acid]
3. C=CCc1ccc(O)c(OC)c1 [Eugenol (4), eugenol]

1. 682
2. 1819
3. 246

* * *

Give Formation constant (Kf) for every item shown.
Experiment: Formation constants (Kf) by UV–visible spectral displacement method, HP-β-CD
Type: physicochemical
Details: UV–visible spectral displacement with MO (MO itself by direct titration), SD <10%
One number for each entry, in M⁻¹.

Known Formation constant (Kf) results, listed for orientation:
O=C(O)/C=C/c1ccc(O)c(O)c1 [Caffeic acid (6), caffeic acid] :: 526
O=C(O)/C=C/c1ccc(O)cc1 [p-Coumaric acid (5), p-coumaric acid] :: 787
CN(C)c1ccc(N=Nc2ccc(S(=O)(=O)[O-])cc2)cc1.[Na+] [MO, methyl orange, reference compound] :: 5597
COc1cc(/C=C/C(=O)O)ccc1O [Ferulic acid (7), ferulic acid] :: 451
C=CCc1ccc(OC)cc1 [Estragole (2), estragole] :: 1508
C=CCc1ccc(O)c(OC)c1 [Eugenol (4), eugenol] :: 436

Which Formation constant (Kf) is listed for C/C=C/c1ccc(OC)cc1 [trans-Anethole (1), trans-anethole] ?
845

* * *

Assay: Formation constants (Kf) by UV–visible spectral displacement method, β-CD
Type: physicochemical
Details: UV–visible spectral displacement with MO (MO itself by direct titration), SD <10%
propertyMeasured: Formation constant (Kf) (M⁻¹)
Numbers only, in M⁻¹.

CN(C)c1ccc(N=Nc2ccc(S(=O)(=O)[O-])cc2)cc1.[Na+] [MO, methyl orange, reference compound] :: 2386

List reported Formation constant (Kf) for each of these compounds:
1. O=C(O)/C=C/c1ccc(O)c(O)c1
2. COc1cc(/C=C/C(=O)O)ccc1O
3. C=CCc1ccc(OC)cc1
4. O=C(O)/C=C/c1ccc(O)cc1
5. C/C=C/c1ccc(OC)cc1 [trans-Anethole (1), trans-anethole]

1: 318; 2: 246; 3: 987; 4: 338; 5: 542

* * *

Experiment: DPPH radical scavenging activity
Settings: PP with ethanolic DPPH• solution
propertyMeasured: Kinetic behavior of reaction with DPPH•

Examples with their reported Kinetic behavior of reaction with DPPH• follow.
C/C=C/c1ccc(OC)cc1 [trans-Anethole (1), trans-anethole] :: slow kinetic behavior
O=C(O)/C=C/c1ccc(O)cc1 [p-Coumaric acid (5), p-coumaric acid] :: slow kinetic behavior
COc1cc(/C=C/C(=O)O)ccc1O [Ferulic acid (7), ferulic acid] :: reacted rapidly
C=CCc1ccc(O)c(OC)c1 [Eugenol (4), eugenol] :: reacted rapidly
C=CCc1ccc(OC)cc1 [Estragole (2), estragole] :: slow kinetic behavior

Consider the molecule shown here: O=C(O)/C=C/c1ccc(O)c(O)c1 [Caffeic acid (6), caffeic acid] What is its recorded Kinetic behavior of reaction with DPPH•?
reacted rapidly

* * *

Assay: Formation constants (Kf) by UV–visible spectral displacement method, RAMEB
Assay type: physicochemical
Conditions: UV–visible spectral displacement with MO (MO itself by direct titration), SD <10%
Assign Formation constant (Kf) to each entry below.
Numbers only, in M⁻¹.

Some entries whose results are on file:
O=C(O)/C=C/c1ccc(O)c(O)c1 [Caffeic acid (6), caffeic acid] :: 991
O=C(O)/C=C/c1ccc(O)cc1 [p-Coumaric acid (5), p-coumaric acid] :: 1030
CN(C)c1ccc(N=Nc2ccc(S(=O)(=O)[O-])cc2)cc1.[Na+] [MO, methyl orange, reference compound] :: 15400
C/C=C/c1ccc(OC)cc1 [trans-Anethole (1), trans-anethole] :: 1815
COc1cc(/C=C/C(=O)O)ccc1O [Ferulic acid (7), ferulic acid] :: 908

API: the following record is the query input.
What value of Formation constant (Kf) has been recorded for this entry: C=CCc1ccc(OC)cc1 [Estragole (2), estragole]
1916

* * *

Test: Formation constants (Kf) by UV–visible spectral displacement method, α-CD
Type: physicochemical
Conditions: UV–visible spectral displacement with MO (MO itself by direct titration), SD <10%
Exercise: for every item that follows, state its recorded Formation constant (Kf).
One number for each entry, in M⁻¹.

Guide cases for Formation constant (Kf), answers given:
C/C=C/c1ccc(OC)cc1 [trans-Anethole (1), trans-anethole] :: 927
COc1cc(/C=C/C(=O)O)ccc1O [Ferulic acid (7), ferulic acid] :: 1769
C=CCc1ccc(O)c(OC)c1 [Eugenol (4), eugenol] :: 350
C=CCc1ccc(OC)cc1 [Estragole (2), estragole] :: 335

Parameters: items (list). Returns: Formation constant (Kf) for each item.
1. O=C(O)/C=C/c1ccc(O)cc1 [p-Coumaric acid (5), p-coumaric acid]
2. O=C(O)/C=C/c1ccc(O)c(O)c1 [Caffeic acid (6), caffeic acid]
3. CN(C)c1ccc(N=Nc2ccc(S(=O)(=O)[O-])cc2)cc1.[Na+] [MO, methyl orange, reference compound]

1816
1540
7810

* * *

propertyMeasured: Increase in formulation bulk
Numbers only.

C=CCc1ccc(O)c(OC)c1 :: 10
O=C(O)/C=C/c1ccc(O)c(O)c1 :: 7
O=C(O)/C=C/c1ccc(O)cc1 :: 7

From here, focus on the item given below.
Which value of Increase in formulation bulk has been reported for `C=CCc1ccc(OC)cc1` in the records?
36

* * *

Assay: Formation constants (Kf) by UV–visible spectral displacement method, CRYSMEB
Assay type: physicochemical
Conditions: UV–visible spectral displacement with MO (MO itself by direct titration), SD <10%
Use 1000 M⁻¹ as the dividing line for Formation constant (Kf), with the line itself on the satisfied side and lower values as not satisfied.

C=CCc1ccc(OC)cc1 :: satisfied
O=C(O)/C=C/c1ccc(O)c(O)c1 :: not satisfied
C/C=C/c1ccc(OC)cc1 [trans-Anethole (1), trans-anethole] :: satisfied
COc1cc(/C=C/C(=O)O)ccc1O :: not satisfied
CN(C)c1ccc(N=Nc2ccc(S(=O)(=O)[O-])cc2)cc1.[Na+] [MO, methyl orange, reference compound] :: satisfied

Does the molecule `O=C(O)/C=C/c1ccc(O)cc1` have recorded Formation constant (Kf) that is 1000 M⁻¹ or more?
not satisfied

Where do the numbers come from? From paper PMC4187030.
